assay_conditions: in ethanol, 303.15 K
readout_kind: solubility (mole fraction)
One number for each entry.

# get_value(readout='solubility (mole fraction)', item= C=CC(=O)N1CCC[C@@H](n2nc(-c3ccc(Oc4ccccc4)cc3)c3c(N)ncnc32)C1 )
0.00356

---

assay_conditions: in ethanol, 323.15 K
readout_kind: solubility (mole fraction)
Numbers only.

# get_value(readout='solubility (mole fraction)', item= C=CC(=O)N1CCC[C@@H](n2nc(-c3ccc(Oc4ccccc4)cc3)c3c(N)ncnc32)C1 )
0.00551

---

assay_conditions: in ethanol, 308.15 K
readout_kind: solubility (mole fraction)
Give bare numbers.

# get_value(readout='solubility (mole fraction)', item= C=CC(=O)N1CCC[C@@H](n2nc(-c3ccc(Oc4ccccc4)cc3)c3c(N)ncnc32)C1 )
0.00396

Where these numbers come from: BigSolDB 2.1
